hCRTH2 receptor (Homo sapiens (Human)) Ki, compiled from various sources.
observable: Ki (nM)

molecule	value-reported
Cc1c(CC(=O)O)c2ccc(F)cn2c1Sc1ccc(S(C)(=O)=O)cc1C(F)(F)F	0.9
Cc1c(Cc2cccc(S(=O)(=O)N3CCCCC3)c2)c2cc(F)ccc2n1CC(=O)O	55
Cc1nn(Cc2ccc(-c3nc4cccnc4[nH]3)cc2F)c(C)c1CC(=O)O	87.4

a: Cc1nn(Cc2ccc(-c3nc4c(Cl)cc(Cl)cc4[nH]3)cc2F)c(C)c1CC(=O)O
b: Cc1nn(Cc2ccc(-c3nc4c(F)cccc4[nH]3)cc2F)c(C)c1CC(=O)O
Req: Looking at recorded values for Ki, does a or b come in lower? Write down the label attached to your selection.
Resp: a
(a: 2.5 nM, b: 9.7 nM)

1: Cc1nc(CN2C(=O)CC3(C2=O)C(=O)N(CC(=O)O)c2ccc(Cl)cc23)cs1 (centres unmarked)
2: O=S(=O)(Nc1nccnc1-c1ccc(Cn2ccc3cc(F)ccc32)cc1)c1ccccc1Cl
3: Cc1nn(Cc2ccc(-c3nc4cc5ccccc5cc4[nH]3)cc2)c(C)c1CC(=O)O
4: Cc1c(Cc2ccc(S(=O)(=O)Cc3ccc(Cl)cc3)cc2)c2cc(F)ccc2n1CC(=O)O
5: Cc1nn(Cc2ccc(-c3nc4cc(Cl)ccc4[nH]3)cc2F)c(C)c1CC(=O)O
Req: Sort low-to-high on Ki, please. Reply with the item labels sorted in the order that was asked for.
Resp: 3, 5, 4, 1, 2

A: Cc1c([C@@H](C)C(=O)O)c2ccc(F)cn2c1Sc1ccc(S(C)(=O)=O)cc1
B: Cc1c(CC(=O)O)c2cccnc2n1CCc1ccccc1
C: Cc1c(Cc2cccc(S(=O)(=O)Cc3ccccc3)c2)c2cc(F)ccc2n1CC(=O)O
D: Cc1nn(Cc2ccc(-c3cc4ccc(C(F)(F)F)cc4[nH]3)cc2C(F)(F)F)c(C)c1CC(=O)O
Req: Place the items in sequence of falling Ki. Sort the labels as requested; that list is your answer.
Resp: B, A, C, D

====

Recorded Ki for molecules tested on hCRTH2 receptor (Homo sapiens (Human)), drawn from a number of studies.
observable: Ki (nM)

structure-string	target-of-assay	Ki (nM)
Cc1c(CC(=O)O)c2ccc(F)cn2c1Sc1ccc(-c2cnn(C)c2)cc1	hCRTH2 receptor (Homo sapiens (Human))	19

A: Cc1c(CC(=O)O)c2cccnc2n1Cc1ccc(S(C)(=O)=O)c(Cl)c1
B: O=S(=O)(Nc1nccnc1N1CCN(Cc2ccc3ccccc3n2)CC1)c1ccc(Oc2ccccc2)cc1
Req: Input pair: A , B . Output: entry with lower Ki. Output the label that corresponds to your choice.
Resp: A
(A: 27 nM, B: 4030 nM)

====

Listing of pKi toward hCRTH2 receptor (Homo sapiens (Human), UniProt Q9Y5Y4), each taken from a published source.
pKi: −log10 of the molar value.
observable: pKi

1: COc1c(C)cnc(CN2C(=O)CC3(C2=O)C(=O)N(CC(=O)O)c2ccc(Cl)cc23)c1C (centres unmarked)
2: Cc1nn(Cc2ccc(NC(=O)c3oc4ccc(F)cc4c3C)cc2)c(C)c1CC(=O)O
3: C[C@@H](NC(=O)c1ccc2c(=O)n(Cc3ccc(F)cc3)c(CCCCC(=O)O)cc2c1)c1ccc(F)cc1
4: N#Cc1cn(CC(=O)O)cc1-c1cc(Cl)ccc1Cl
Req: For the compounds shown above, give the order from largest pKi to smallest. # answer = labels listed in requested order
Resp: 2, 3, 4, 1
